These data points were gathered from ChEMBL document CHEMBL1155809.

- Test system: HEK293
- run_description: Cytotoxicity against human HEK293 cells assessed as levels of nitric oxide production at 100 uM after 30 to 300 mins by colorimetric assay
- Format: functional, cell-based
Activity calls are given as the source filed them. The rule behind the calls is not given here.

compound_string	Activity
CC1(C)CC[C@]2(C(=O)O)CC[C@]3(C)C(=CC[C@@H]4[C@@]5(C)CC[C@H](OC(=O)CCC(=O)OCc6cccc(Oc7no[n+]([O-])c7S(=O)(=O)c7ccccc7)c6)C(C)(C)[C@@H]5CC[C@]43C)[C@@H]2C1	inactive
CC1(C)CC[C@]2(C(=O)O)CC[C@]3(C)C(=CC[C@@H]4[C@@]5(C)CC[C@H](OC(=O)CCC(=O)OCC#CCOc6no[n+]([O-])c6S(=O)(=O)c6ccccc6)C(C)(C)[C@@H]5CC[C@]43C)[C@@H]2C1	inactive

###

- run_description: Cytotoxicity against human Hep3B cells assessed as cell death at 0.1 uM after 24 hrs by lactate dehydrogenase release assay
- Type: functional, Hep 3B2
measurement_label: Activity (%)
Answer in %, number only, no unit symbol.

I am curious: what Activity value has been reported for CC(CCOc1no[n+]([O-])c1S(=O)(=O)c1ccccc1)OC(=O)[C@]12CCC(C)(C)C[C@H]1C1=CC[C@@H]3[C@@]4(C)CC[C@H](O)C(C)(C)[C@@H]4CC[C@@]3(C)[C@]1(C)CC2 (stereo partly specified) ? 63.51

I am curious: what Activity value has been reported for `CC1(C)CC[C@]2(C(=O)O)CC[C@]3(C)C(=CC[C@@H]4[C@@]5(C)CC[C@H](OC(=O)CCC(=O)OCC#CCOc6no[n+]([O-])c6S(=O)(=O)c6ccccc6)C(C)(C)[C@@H]5CC[C@]43C)[C@@H]2C1` ? 19.61

I am curious: what Activity value has been reported for `CC1(C)CC[C@]2(C(=O)O)CC[C@]3(C)C(=CC[C@@H]4[C@@]5(C)CC[C@H](OC(=O)CCC(=O)OCCOCCOc6no[n+]([O-])c6S(=O)(=O)c6ccccc6)C(C)(C)[C@@H]5CC[C@]43C)[C@@H]2C1` ? 56.43

I am curious: what Activity value has been reported for `CC1(C)CC[C@]2(C(=O)O)CC[C@]3(C)C(=CC[C@@H]4[C@@]5(C)CC[C@H](O)C(C)(C)[C@@H]5CC[C@]43C)[C@@H]2C1` ? 0

I am curious: what Activity value has been reported for `C[C@H](CCC(=O)O)[C@H]1CC[C@H]2[C@@H]3[C@@H](O)C[C@@H]4C[C@H](O)CC[C@]4(C)[C@H]3CC[C@]12C` ? 0

I am curious: what Activity value has been reported for `CC1(C)CC[C@]2(C(=O)O)CC[C@]3(C)C(=CC[C@@H]4[C@@]5(C)CC[C@H](OC(=O)CCC(=O)OCc6cccc(Oc7no[n+]([O-])c7S(=O)(=O)c7ccccc7)c6)C(C)(C)[C@@H]5CC[C@]43C)[C@@H]2C1` ? 0

I am curious: what Activity value has been reported for CC(CCOc1no[n+]([O-])c1S(=O)(=O)c1ccccc1)OC(=O)[C@]12CCC(C)(C)C[C@H]1C1=CC[C@@H]3[C@@]4(C)CC[C@H](OC(=O)C(F)(F)F)C(C)(C)[C@@H]4CC[C@@]3(C)[C@]1(C)CC2 (stereo partly specified) ? 0

I am curious: what Activity value has been reported for CC(CCOc1no[n+]([O-])c1S(=O)(=O)c1ccccc1)OC(=O)CCC(=O)O[C@H]1CC[C@]2(C)[C@H]3CC=C4[C@@H]5CC(C)(C)CC[C@]5(C(=O)O)CC[C@@]4(C)[C@]3(C)CC[C@H]2C1(C)C (stereo partly specified) ? 92.4

I am curious: what Activity value has been reported for `CC1(C)CC[C@]2(C(=O)O)CC[C@]3(C)C(=CC[C@@H]4[C@@]5(C)CC[C@H](OC(=O)CCC(=O)OCCCCOc6no[n+]([O-])c6S(=O)(=O)c6ccccc6)C(C)(C)[C@@H]5CC[C@]43C)[C@@H]2C1` ? 61.18

I am curious: what Activity value has been reported for `CC1(C)CC[C@]2(C(=O)O)CC[C@]3(C)C(=CC[C@@H]4[C@@]5(C)CC[C@H](OC(=O)CCC(=O)NCCOc6no[n+]([O-])c6S(=O)(=O)c6ccccc6)C(C)(C)[C@@H]5CC[C@]43C)[C@@H]2C1` ? 16.34

I am curious: what Activity value has been reported for `CC1(C)CC[C@]2(C(=O)O)CC[C@]3(C)C(=CC[C@@H]4[C@@]5(C)CC[C@H](OC(=O)CCC(=O)OCc6c(-c7ccccc7)no[n+]6[O-])C(C)(C)[C@@H]5CC[C@]43C)[C@@H]2C1` ? 0
